Provenance of the data: patent US20120302511A1

target: T1, histidine-tagged human thymidylate synthase (ht-hTS) (human, UniProt P04818 1-313); assay: enzyme kinetics, hTS activity followed by UV absorbance at 340 nm, peptide at 0, 50 and 100 µM
T1 construct: also called human TS
T1 sequence (P04818 other isoform, or with tags, fused parts or gaps limits assumed): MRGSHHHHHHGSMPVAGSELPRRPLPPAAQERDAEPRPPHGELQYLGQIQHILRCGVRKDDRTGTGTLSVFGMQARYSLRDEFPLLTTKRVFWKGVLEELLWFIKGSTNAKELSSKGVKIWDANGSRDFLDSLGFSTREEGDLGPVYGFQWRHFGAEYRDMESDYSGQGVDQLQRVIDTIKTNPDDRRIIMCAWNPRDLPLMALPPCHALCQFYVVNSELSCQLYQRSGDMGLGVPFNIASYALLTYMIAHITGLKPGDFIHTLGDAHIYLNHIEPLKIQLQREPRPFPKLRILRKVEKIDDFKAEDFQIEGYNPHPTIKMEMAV
pKi: −log10 of the molar value.

| binder | pKi |
| --- | --- |
| DFIHTLGD (synthetic octapeptide) [SEQ ID NO: 1] | 4.52 |
